# Method summary: protein stability index of a GFP-peptide fusion (GPS, HEK-293T) (PSI 1-6); higher = more stable;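 further: 24-mer peptide tiles fused after GFP, lentivirally expressed, FACS-sorted into six equal bins by GFP/DsRed ratio, decoded by Illumina sequencing, PSI is the read-weighted mean bin number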
# Condition details: treatment: DMSO; c terminus: a fixed tail appended
Reported endpoint: protein stability index

>>> test_result("LDQLLHYRKKSAEFPDFYDSEEPV [CHGB]")
3.96
>>> test_result("SFAQLKNLKWLDLKDNPLDPVLAK [LRRC59]")
2.98

Q: Give its protein stability index value. Item: QTESELQELSEVLELLSAPELKSL [FAN1]
Result: 4.1

* * *

# Method summary: protein stability index of a GFP-peptide fusion (GPS, HEK-293T) (PSI 1-6); higher = more stable
# Condition details: treatment: MLN4924 1 uM, 8 h; c terminus: a fixed tail appended
Reported endpoint: protein stability index
Answer using only a numeral; do not append any unit.

Look over these answered cases.
>>> test_result("ECKKLFQVPEEMSRCRNSYTEQEL [DLC1]")
4
>>> test_result("QLPPVVPVSKPGALRRSLSRSMSQ [TCAP]")
3.96
>>> test_result("PMPVSQECFETLRGDERILSILRH [CHGA]")
3.02
>>> test_result("LDQLLHYRKKSAEFPDFYDSEEPV [CHGB]")
4
>>> test_result("RYRGLGLLASVPSNPNGNGGFMGY [CRY1]")
2.91
>>> test_result("SFAQLKNLKWLDLKDNPLDPVLAK [LRRC59]")
2.96

Q: Give its protein stability index value. Item: LNQKGTAVETEGSGSRHPPWARGC [SLC2A12]
Result: 4.08
